Reference source for all entries: PubChem BioAssay AID652031

Items are presented alongside their recorded inhibition.
Target: Kappa-type opioid receptor (Homo sapiens) (UniProt P41145)
Sequence (P41145 whole entry, looked up): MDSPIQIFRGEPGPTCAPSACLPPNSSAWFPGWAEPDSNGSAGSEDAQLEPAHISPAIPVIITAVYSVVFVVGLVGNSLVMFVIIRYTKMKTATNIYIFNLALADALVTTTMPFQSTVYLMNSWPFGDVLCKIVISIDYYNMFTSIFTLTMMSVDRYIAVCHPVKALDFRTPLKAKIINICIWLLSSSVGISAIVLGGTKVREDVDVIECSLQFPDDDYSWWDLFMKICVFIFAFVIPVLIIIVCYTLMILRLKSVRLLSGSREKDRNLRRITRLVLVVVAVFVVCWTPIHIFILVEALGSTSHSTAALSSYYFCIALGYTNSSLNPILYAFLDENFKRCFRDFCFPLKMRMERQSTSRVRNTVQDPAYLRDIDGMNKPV
Test: blocks the human kappa opioid receptor, Maybridge compounds (AID 652031)
Conditions: OPRK1 cells, antagonist mode, fluorescence readout; at 9 µM; stronger effect = higher value
About 70 (0.4%) of roughly 16,000 compounds were called active. This excerpt belongs to a sample that is enriched for actives.
parameterMeasured: inhibition (%)

INSERT INTO measurements (molecule, parametermeasured, valuereported) VALUES
  ('Cc1nn(-c2ccccc2)nc1C(=O)Nc1nnc(C2CC2)s1', 'inhibition', 8.4),
  ('CC(OC(=O)c1cccc(Cl)c1)c1ccc[n+](C)c1 (centres undefined)', 'inhibition', 1.5),
  ('OC(CNCCNc1nccc(C(F)(F)F)n1)COc1ccc(Cl)c(Cl)c1 (centres undefined)', 'inhibition', -9.3),
  ('C/C(=N\NC(=S)Nc1cccc(F)c1)c1ccco1', 'inhibition', 14.4),
  ('N#Cc1ccc(OS(=O)(=O)c2cc(C(F)(F)F)cc(C(F)(F)F)c2)cc1', 'inhibition', -5.9),
  ('Cc1nc(C(F)(F)F)ccc1C(=O)NCCNc1ncccc1C(F)(F)F', 'inhibition', -36.9),
  ('Cc1ccc(/C=c2\sc3nc4ccccc4n3c2=O)o1', 'inhibition', 53.6),
  ('O=[N+]([O-])c1ccc(CSc2nnc(-c3ccncc3)o2)cc1', 'inhibition', -7.8),
  ('O=c1[nH]c2cc(Cl)c(Cl)cc2n1-c1ccncc1', 'inhibition', -14.5),
  ('Cc1ccc(NC(C(=O)O)c2ccccc2)cc1 (centres undefined)', 'inhibition', -11.7),
  ('CCOC(=O)NC(=O)/C(=C/NC(C)C)C(=O)OCC', 'inhibition', 5.6),
  ('OC(CNCc1ccc2c(c1)OCO2)COc1ccccc1 (centres undefined)', 'inhibition', -20.1),
  ('N/C(=N\OC(=O)c1cccc(Cl)c1)c1ccc2nonc2c1', 'inhibition', 3),
  ('N#CCCSc1sc(=S)sc1SCCC#N', 'inhibition', -2.5),
  ('CCCS(=O)(=O)c1csc(C(=O)OC)c1N/N=C/c1cccs1', 'inhibition', -24.1),
  ('CCOC(=O)CN1C(=O)/C(=C\c2ccc(C)o2)N=C1c1ccccc1', 'inhibition', 3.1),
  ('Cc1nnsc1C(=O)NN(C)c1ccc([N+](=O)[O-])cn1', 'inhibition', 14.8),
  ('Cc1cc(C(=O)NNC(=O)c2cc(C)n(C(C)(C)C)n2)no1', 'inhibition', 8.1),
  ('O=S(=O)(CCSc1ccccc1NS(=O)(=O)c1cccs1)c1ccc(Cl)cc1', 'inhibition', -16.4),
  ('COc1ccccc1N1CCN(C/C(N)=N/O)CC1', 'inhibition', -2.8),
  ('CC(C)(C)C(=O)NNC(=O)c1ccc(Oc2ccc(C3SCCS3)cc2)o1', 'inhibition', 30.1),
  ('CCN(CCN1C(=O)CCC1=O)c1cccc(NC(C)=O)c1', 'inhibition', -3.7),
  ('CCOC(=O)COc1cccc2c(C)cc(=O)oc12', 'inhibition', -1.5),
  ('Oc1ccccc1C=NCCCN=Cc1ccccc1O', 'inhibition', -15.8);
